Every entry's value here was drawn from ChEMBL document CHEMBL4304768.

# Test summary: Stability in human plasma assessed as percentage intact peptide at 100 uM incubated for 2 hrs by LC-HRMS analysis
# Type: ADME, cell-free
# Condition label: read-out: Stability
Measured parameter: remaining at 2 h, 100 µM (%)

{"columns": ["Chemical smiles", "Result units", "Result value"],
 "data": [
  ["CC[C@H](C)[C@H](NC(=O)[C@H](Cc1ccc(O)cc1)NC(=O)[C@@H]1CCCN1C(=O)[C@H](CCCNC(=N)N)NC(=O)[C@H](CCCNC(=N)N)NC)C(=O)N[C@@H](CC(C)C)C(=O)O.O=C(O)C(F)(F)F.O=C(O)C(F)(F)F.O=C(O)C(F)(F)F", "%", 70.8],
  ["CC[C@H](C)[C@H](NC(=O)[C@H](Cc1ccc(O)cc1)NC(=O)[C@@H]1CCCN1C(=O)[C@H](CCCNC(=N)N)N(C)C(=O)[C@@H](N)CCCNC(=N)N)C(=O)N[C@@H](CC(C)C)C(=O)O", "%", 66.4]
]}

====

Recorded remaining at 48 h, 100 µM, one value per entry.
# Test summary: Stability in human plasma assessed as percentage intact peptide at 100 uM incubated for 48 hrs by LC-HRMS analysis
# Type: ADME, cell-free
# Condition label: read-out: Stability

Examples from the recorded data:
{"columns": ["Chemical smiles", "Measured parameter", "Result value"],
 "data": [
  ["CC[C@H](C)[C@H](NC(=O)[C@H](Cc1ccc(O)cc1)NC(=O)[C@@H]1CCCN1C(=O)[C@H](CCCNC(=N)N)NC(=O)[C@@H](N)CCCNC(=N)N)C(=O)N[C@@H](CC(C)C)C(=O)O", "remaining at 48 h, 100 µM", "< 1%"],
  ["CC(C)C[C@H](NC(=O)[C@@H](NC(=O)[C@H](Cc1ccc(O)cc1)NC(=O)[C@@H]1CCCN1C(=O)[C@H](CCCNC(=N)N)N(C)C(=O)[C@@H](N)CCCNC(=N)N)C(C)(C)C)C(=O)O.O=C(O)C(F)(F)F.O=C(O)C(F)(F)F.O=C(O)C(F)(F)F", "remaining at 48 h, 100 µM", "> 99%"]
]}

Would you kindly look at the next entry?
Q: GET /values?readout=remaining at 48 h, 100 µM&item= CC(C)C[C@H](NC(=O)[C@@H](NC(=O)[C@H](Cc1ccc(O)cc1)NC(=O)[C@@H]1CCCN1C(=O)[C@H](CCCNC(=N)N)NC(=O)[C@@H](N)CCCNC(=N)N)C(C)(C)C)C(=O)O.O=C(O)C(F)(F)F.O=C(O)C(F)(F)F.O=C(O)C(F)(F)F
Ans: < 1%

====

# Test summary: Stability in human plasma assessed as percentage intact peptide at 100 uM incubated for 2 hrs by LC-HRMS analysis
# Type: ADME, cell-free
# Condition label: read-out: Stability
Measured parameter: remaining at 2 h, 100 µM

Examples from the recorded data:
{"columns": ["Chemical smiles", "remaining at 2 h, 100 µM"],
 "data": [
  ["CC[C@H](C)[C@H](NC(=O)[C@H](Cc1ccc(O)cc1)N(C)C(=O)[C@@H]1CCCN1C(=O)[C@H](CCCNC(=N)N)NC(=O)[C@@H](N)CCCNC(=N)N)C(=O)N[C@@H](CC(C)C)C(=O)O", "< 1%"],
  ["CC[C@H](C)[C@@H](C(=O)N[C@@H](CC(C)C)C(=O)O)N(C)C(=O)[C@H](Cc1ccc(O)cc1)NC(=O)[C@@H]1CCCN1C(=O)[C@H](CCCNC(=N)N)NC(=O)[C@@H](N)CCCNC(=N)N", "< 1%"]
]}

Would you kindly look at the next entry?
Q: GET /values?readout=remaining at 2 h, 100 µM&item= CC[C@H](C)[C@H](NC(=O)[C@H](Cc1ccc(O)cc1)NC(=O)[C@@H]1CCCN1C(=O)[C@H](CCCNC(=N)N)NC(=O)[C@@H](N)CCCNC(=N)N)C(=O)N(C)[C@@H](CC(C)C)C(=O)O
Ans: < 1%
